Data origin: patent US8455544B2

Would you kindly list pIC50 for each of these compounds?
System: IFNγ-induced NO production in RAW264.7 macrophages
assay-method-text: Suppression of IFNγ-induced NO production (Griess reagent system)
Format: cell-based
condition-context: Mus musculus; RAW264.7, pre-treated 2 hours, then 20 ng/ml IFNγ for 24 hours
pIC50: −log10 of the molar value.

[[record]]
compound = "CC1(C)CC[C@]2(C#N)CC[C@]3(C)[C@H](C(=O)C=C4[C@@]5(C)C=C(C#N)C(=O)C(C)(C)[C@@H]5CC[C@]43C)[C@@H]2C1 [TP-225]"
assay_readout = "pIC50"
result = "~9.40"

[[record]]
compound = "CC1(C)CC[C@]2(C(=O)O)CC[C@]3(C)[C@H](C(=O)C=C4[C@@]5(C)C=C(C#N)C(=O)C(C)(C)[C@@H]5CC[C@]43C)[C@@H]2C1 [RTA 401]"
assay_readout = "pIC50"
result = "~8.00"


Consider now this further compound.
Task: Fill in the recorded pIC50 for this compound, with IFNγ-induced NO production in RAW264.7 macrophages as test system: CC1(C)CC[C@]2(C(=O)n3ccnc3)CC[C@]3(C)[C@H](C(=O)C=C4[C@@]5(C)C=C(C#N)C(=O)C(C)(C)[C@@H]5CC[C@]43C)[C@@H]2C1 [RTA 403]
Output: ~9.22
